Measured values drawn from paper PMC12040169 for this set.

- method: in vitro
- condition_label: human, hela cells, % viability
Can you tell me viability at 28.5 h, 10 µM for the items I'm about to list?
Give the value, in units of %, as a plain number.

Record CCOc1ccc(CN2CCN(CCCc3ccccc3)CC2)cc1 [CBK264153G] , field viability at 28.5 h, 10 µM: 92.7

Briefly, viability at 28.5 h, 10 µM measured for c1ccc(OCCN2CCCN(c3nccc(OCC4COc5ccccc5O4)n3)CC2)cc1 (stereo not shown) [CBK083980] : 94

get_value(item= CCOC(=O)C1=C(C)NC(=O)NC1c1ccc(-c2cccc([N+](=O)[O-])c2)o1 (stereo not shown) [CBK072102] , readout=viability at 28.5 h, 10 µM) returns 109

# molecule Cc1cc(C)c(-c2csc(NS(=O)(=O)c3cccc(C(=O)O)c3)n2)cc1C [CBK296698] ; its viability at 28.5 h, 10 µM = 118

Memo: CSCCC(=O)NCc1c(-c2ccccc2)noc1C [CBK144092] , reported viability at 28.5 h, 10 µM: 85.9

viability at 28.5 h, 10 µM measured on CCCN(CCc1ccc(C(F)(F)F)cc1)C1Cc2cc(OC)c(OC)cc2C1 [CBK017829C] = 103

Record O=C1c2ccccc2CN1c1nccs1 [CBK113184] . Reported viability at 28.5 h, 10 µM: 84.8

# viability at 28.5 h, 10 µM of COc1cc(CNC2CCCc3c2cnn3C)c(O)c(C(C)(C)C)c1 (stereo not shown) [CBK304716] = 84.4

Quick note, viability at 28.5 h, 10 µM for O=C(NC1CCCCC1)NS(=O)(=O)c1ccc(CCNC(=O)c2cnc3ccccc3n2)cc1 [CBK013051] landed at 87.1

Record COc1cc(CN2CCNC(=O)C2CC(=O)O)cc(OC)c1 (stereo not shown) [CBK269752] , field viability at 28.5 h, 10 µM: 105

Entry CC1CCc2c(sc(NC(=O)c3cc(-c4cccnc4)nc4ccc(Cl)cc34)c2C(N)=O)C1 (stereo not shown) [CBK267762] ; viability at 28.5 h, 10 µM = 104

The molecule identified as Brc1cccc(NN=C2CCCC2)n1 [CBK006748] registered its viability at 28.5 h, 10 µM at 85.3

viability at 28.5 h, 10 µM reported for this molecule Cc1ccc(C)c(-c2csc3c(=O)[nH]cnc23)c1 [CBK288556] : 101

Measured viability at 28.5 h, 10 µM of Cc1cccc(-c2nccnc2C2CCCN(C(=O)COc3ccc(F)cc3)C2)c1 (stereo not shown) [CBK286241] : 88.1

Kindly note the recorded viability at 28.5 h, 10 µM for Cc1ccc(N(C(C)C(=O)Nc2ccccc2-c2ccccc2)S(C)(=O)=O)cc1 (stereo not shown) [CBK267889] , which is 105

Noted for c1ccc(Cn2cncc2-c2cncn2CCCN2CCCCC2)cc1 [CBK281490] : its viability at 28.5 h, 10 µM reads 114

viability at 28.5 h, 10 µM recorded for this molecule, COc1ccc(-n2c(=O)[nH]cc(C(=O)Nc3cccc(Cl)c3C)c2=O)cc1 [CBK287549] , is 118

Record O=C(O)c1ccc(Nc2ncnc3c2cnn3Cc2ccccc2)cc1 [CBK263803] , field viability at 28.5 h, 10 µM: 92.1

Note to self: viability at 28.5 h, 10 µM recorded for O=C(c1c(F)cccc1Cl)N1CCN(Cc2ccc3c(c2)OCO3)CC1 [CBK074724] was 93.9
